Test system: velvetleaf (Abutilon theophrasti)
assayProtocol: Test G Post-Emergence Protocol
Assay type: in vivo
conditionLabel: Abutilon theophrasti, post-emergence, 312 h, 62.5 g ai/ha, evaluated after 13 days, read-out: Velvetleaf damage rating (100=total damage to plant; 0=no damage to plant)
quantityMeasured: pest or weed control at 62.5 g/ha (%)
Please state the figure in %; there is no need to write the unit.

compound	quantityMeasured	unitSpec	obsValue
CN1C[C@@H](c2ccc(C(F)(F)F)cc2)[C@H](C(=O)Nc2nccc(C(F)(F)F)n2)C1=O (racemic)	pest or weed control at 62.5 g/ha	%	0
CN1C[C@@H](c2ccc(C(F)(F)F)cc2)[C@H](C(=O)Nc2cn(C)nn2)C1=O (racemic)	pest or weed control at 62.5 g/ha	%	0
CN1C[C@@H](c2ccc(C(F)(F)F)cc2)[C@H](C(=O)Nc2ccc(C#N)cc2Cl)C1=O (racemic)	pest or weed control at 62.5 g/ha	%	0

Would you kindly look at the next entry?
Please list pest or weed control at 62.5 g/ha recorded for the compound COc1c(Cl)ccc([C@H]2CNC(=O)[C@@H]2C(=O)Nc2cccc(F)c2F)c1F (racemic) 10

----------
Test system: Kochia (Kochia scoparia)
assayProtocol: Test A preemergence
Format: in vivo
conditionLabel: Bassia scoparia, pre-emergence, 240 h, Preemergence, 125 g ai/ha; 0 to 100 scale (0 no effect, 100 complete control); read-out: Plant response rating, Kochia
Each entry below lists one item and its recorded pest or weed control at 125 g/ha value.
Please state the figure in %; there is no need to write the unit.

Below are worked cases with known answers.
compound	quantityMeasured	obsValue
N#Cc1cc([C@H]2CNC(=O)[C@]2(O)C(=O)Nc2cccc(F)c2F)ccc1F	pest or weed control at 125 g/ha	0
CN1C[C@H](c2csc3c2CCC(F)(F)C3)[C@@H](C(=O)Nc2cccc(F)c2F)C1=O (racemic)	pest or weed control at 125 g/ha	0
O=C1NC[C@H](c2cncs2)[C@H]1C(=O)Nc1cccc(F)c1F	pest or weed control at 125 g/ha	0

Would you kindly look at the next entry?
Provide pest or weed control at 125 g/ha, recorded with Kochia (Kochia scoparia), of CN1C[C@H](c2ccc3c(c2)CCO3)[C@@H](C(=O)Nc2ccccc2F)C1=O 50

----------
Tested on: barnyardgrass (Echinochloa crus-galli)
assayProtocol: Test A postemergence
Format: in vivo
conditionLabel: 125 g ai/ha, postemergence; visual injury rating on 0 to 100 scale (0 no effect, 100 complete control), approx. 10 d
Everything with Barnyardgrass plant response rating lower than 80 is Condition not met; everything else, including exactly 80, is Condition met.

As a guide, the following entries are already answered.
compound	experimentalSystem	assignedLabel
O=C1NCC(c2cc(F)ccc2F)C1C(=O)Nc1ccccc1F (racemic) [Compound 544]	barnyardgrass (Echinochloa crus-galli)	Condition not met
O=C1NCC(c2cc(Br)cs2)C1C(=O)Nc1cccc(F)c1F (racemic) [Compound 510]	barnyardgrass (Echinochloa crus-galli)	Condition not met
CN1CC(c2ccc(C(F)(F)F)cc2F)C(C(=O)Nc2ccc(F)cc2F)C1=O (stereo not shown) [Compound 474]	barnyardgrass (Echinochloa crus-galli)	Condition met
O=C1NCC(c2ccc(Oc3ccccc3)cc2)C1C(=O)Nc1ccc(F)cc1F (racemic) [Compound 535]	barnyardgrass (Echinochloa crus-galli)	Condition not met

Now let's try a different one.
Decide: Barnyardgrass plant response rating of COCc1cccc(C2CNC(=O)C2C(=O)Nc2cccc(F)c2F)c1 (stereo not shown) [Compound 497] >= 80? Condition not met

Taken from patent US12077503B2.
